# Test system: mtsABAD HEK293 cells
# PROCEDURE_DETAILS: Alamar Blue cell viability assay
# Format: cell-based, human
# CONDITION_SET: 50 μM compound
So I've got a bunch of compounds here, and I need their Alamar Blue % Viability (50 μM Dose) values.
One number for each entry, in %.

# count of solved cases: 4
{"MOLECULAR_STRING": "Cc1ccsc1C(=O)N1CCC[C@H]1c1ccccc1-c1cccc(C)c1C", "UNIT_TEXT": "%", "READING": 82.52}
{"MOLECULAR_STRING": "Cc1ccsc1C(=O)N1CCC[C@H]1c1ccccc1-c1ccc(C#N)cc1", "UNIT_TEXT": "%", "READING": 80.39}
{"MOLECULAR_STRING": "Cc1ccsc1C(=O)N1CCC[C@H]1c1ccccc1-c1ccc(Cl)cc1Cl", "UNIT_TEXT": "%", "READING": 94.26}
{"MOLECULAR_STRING": "CC(C)CN(C(=O)c1ccccc1F)c1cccc(N(C)Cc2cncs2)c1", "UNIT_TEXT": "%", "READING": 65.577}

--- query ---
query: Any idea what its Alamar Blue % Viability (50 μM Dose) is? The compound is COc1ccc(C(=O)N(CC(C)C)c2cccc(N(C)Cc3cnc[nH]3)c2)cc1
result: 87.643

====

# SYSTEM_UNDER_TEST: 17β-HSD10 (Homo sapiens, UniProt Q99714)
# Construct: Histev (histidine tag with TEV site) (N, cleaved yes); made in house; host or cells: E. coli BL21-CodonPlus
# Sequence (Q99714 1-261): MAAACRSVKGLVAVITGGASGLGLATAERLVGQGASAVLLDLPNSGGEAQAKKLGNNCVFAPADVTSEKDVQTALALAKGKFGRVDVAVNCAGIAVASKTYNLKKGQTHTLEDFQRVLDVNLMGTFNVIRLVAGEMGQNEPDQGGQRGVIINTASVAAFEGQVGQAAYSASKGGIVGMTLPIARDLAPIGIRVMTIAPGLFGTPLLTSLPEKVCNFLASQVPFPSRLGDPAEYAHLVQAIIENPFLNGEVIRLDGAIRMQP
# PROCEDURE_DETAILS: 17β-HSD10 (ABAD) enzyme inhibition assay, NADH oxidation read at 340 nm (primary screen and dose response)
# Assay type: biochemical
# CONDITION_SET: recombinant 17βHSD10 enzyme assay, curve fit
If the reported Min. Fit equals or exceeds -3, assign t. If not, assign f.

{"COMPOUND": "CC(C)CN(C(=O)c1ccc(F)cc1F)c1cccc(N(C)Cc2c[nH]cn2)c1 [ESC1002454]", "SYSTEM_UNDER_TEST": "17β-HSD10 (Homo sapiens, UniProt Q99714)", "LABEL_CLASS": "f"}
{"COMPOUND": "Cc1ccc(-c2ccccc2[C@@H]2CCCN2C(=O)c2sccc2C)cc1 [ESC1002337]", "SYSTEM_UNDER_TEST": "17β-HSD10 (Homo sapiens, UniProt Q99714)", "LABEL_CLASS": "f"}
{"COMPOUND": "Cc1ccsc1C(=O)N1CCC[C@@H]1c1ccccc1-c1cccnc1 [ESC1002090]", "SYSTEM_UNDER_TEST": "17β-HSD10 (Homo sapiens, UniProt Q99714)", "LABEL_CLASS": "t"}
{"COMPOUND": "CC(C)CN(C(=O)Cc1ccccc1)c1cccc(N(C)Cc2cnc[nH]2)c1 [ESC1002167]", "SYSTEM_UNDER_TEST": "17β-HSD10 (Homo sapiens, UniProt Q99714)", "LABEL_CLASS": "t"}

query: Threshold query (Min. Fit >= -3) on CC(C)CN(C(=O)c1ccccc1F)c1cccc(N(C)CCO)c1 [ESC1002577]
result: t

query: Threshold query (Min. Fit >= -3) on Cc1ccccc1-c1ccccc1[C@@H]1CCCN1C(=O)c1sccc1C [ESC1002323]
result: t

query: Threshold query (Min. Fit >= -3) on COc1cc(-c2ccccc2[C@@H]2CCCN2C(=O)c2sccc2Cl)ccc1F (racemic) [ESC1002699]
result: t

query: Threshold query (Min. Fit >= -3) on O=C(c1sccc1Cl)N1CCC[C@H]1c1ccccc1-c1cccc2[nH]ncc12 (racemic) [ESC1002702]
result: f

query: Threshold query (Min. Fit >= -3) on CC(C)CN(C(=O)c1ccccc1F)c1cccc(N(C)Cc2c[nH]c(C3CC3)n2)c1 [ESC1002674]
result: f
